System: EPHA2;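 note: KINOMEscan kinase panel screen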
PARTICULARS: concentration: 1 μM, replicates: in singlicate; n = 1

MOLECULE	UNIT_NAME	%Inh
CN(c1ccc(NC(=O)Nc2cc(C(F)(F)F)ccc2F)cc1)c1ccnc(Nc2ccc(S(N)(=O)=O)cc2)n1	%	96.1
O=C(Nc1n[nH]c2cc(-c3ccoc3)ccc12)C1CC1	%	0
Cl.Cl.NCC(NC(=O)c1cc(-c2ccccc2)c(-c2ccnc3[nH]ccc23)s1)c1ccccc1 (stereo not shown)	%	21
COc1cccc(-c2ccc3c(NC(=O)C4CC4)n[nH]c3n2)c1	%	0
CC(C)(C)c1ccc2nccc(Nc3cccc(O)c3)c2c1	%	18
Nc1ncc(-c2ccc3nccc(-c4ccncc4)c3c2)cc1S(=O)(=O)N1CCOCC1	%	4
COC(=O)Nc1nc2ccc(Oc3ccc(NC(=O)Nc4cc(C(F)(F)F)ccc4F)cc3)cc2n1C.Cl	%	75
COc1ccc(CNC(=O)NC2CCN(c3ccnc(Nc4ccc(F)cc4)n3)CC2)cc1	%	1
C[C@@H](Oc1cc(-n2cnc3cc(-c4ccnc(NCCS(C)(=O)=O)c4)ccc32)sc1C(N)=O)c1ccccc1Cl	%	16
O=C(Nc1cccc(-c2nn3ccccc3c2-c2ccnc(Nc3cccc(F)c3)n2)c1)c1c(F)ccc(F)c1Cl	%	0
Cc1cccc(NC(=O)Nc2ccc(Oc3ncnc4ccn(C)c34)cc2)c1	%	0
COC(=O)Nc1nc2cc(Oc3ccc(NC(=O)Nc4cc(C(F)(F)F)ccc4F)cn3)ccc2[nH]1.Cl.Cl	%	92.3
COc1cc(Nc2nccc(-c3c(-c4cccc(NC(=O)c5c(F)cccc5F)c4)nn4ncccc34)n2)cc(OC)c1OC	%	71
Cn1cc(-c2[nH]c3cc(NC(=O)[C@H](N)C4CCCCC4)cc4c3c2C=NNC4=O)cn1	%	1
COc1cccc(NC(=O)NC2CCN(c3ccnc(Nc4cc(OC)c(OC)c(OC)c4)n3)C2)c1 (stereo not shown)	%	0
Cc1ccc(C(=O)N2CC[C@@H](O)C2)cc1-n1c(C)cc(OCc2ccc(F)cc2F)c(Br)c1=O	%	76
CC(=O)N1CCN(c2ccc(Nc3nccc(-c4sc(C(C)C)nc4-c4cccc(NS(=O)(=O)c5cccc(Cl)c5)c4)n3)cn2)CC1	%	3
O=C(Nc1cccc(-c2nn3ccccc3c2-c2ccnc(Nc3cccc(C(F)(F)F)c3)n2)c1)c1c(F)cccc1F	%	8
FC(F)(F)c1ccc(/C=C/c2cncnc2Nc2ccc3[nH]c(Cc4ccccc4)nc3c2)cc1	%	12
CCc1ccc(-c2ccc3c(c2)-c2c(cnn2C)S(=O)(=O)N3C)cc1	%	0
CCn1c(-c2nonc2N)nc2c(C#CC(C)(C)O)ncc(OCCCCN)c21.O=C(O)C(F)(F)F.O=C(O)C(F)(F)F	%	43
O=C(Nc1ccccc1F)NC1CCN(c2ccnc(Nc3ccc(F)cc3)n2)CC1	%	0
COc1ccc(Nc2nccc(N3CCC(NC(=O)Nc4cccc(OC)c4)C3)n2)cc1 (stereo not shown)	%	0
Cc1ccc(C(=O)Nc2ccc(Nc3ccnc4cc(-c5nccs5)ccc34)cc2O)cc1.Cl	%	15
Nc1ncc(-c2cccnc2)c2scc(-c3ccc4c(c3)CCN4C(=O)Cc3ccccc3)c12	%	8
CC(C)c1nc(-c2cccc(NS(=O)(=O)c3c(F)cccc3F)c2F)c(-c2ccnc(Nc3ccc(N4CCOCC4)nc3)n2)s1	%	86
Cc1cccc(Nc2nc(N[C@H]3CCNC3)ncc2C(N)=O)c1.Cl	%	0
Cc1occc1-c1ncc(OC[C@@H](N)Cc2c[nH]c3ccccc23)cc1-c1ccc2[nH]nc(C)c2c1.O=C(O)C(F)(F)F	%	9
COc1cc(Nc2nccc(-c3c(-c4cccc(NC(=O)c5c(F)cccc5F)c4)nn4ccccc34)n2)cc(OC)c1OC	%	16
CNC(=O)c1ccccc1Nc1nc(Nc2ccc(N3CCOCC3)cc2)ncc1Cl.Cl	%	53
COc1cc(Nc2nccc(N3CCC(NC(=O)Nc4cccc(C(C)=O)c4)C3)n2)cc(OC)c1OC (stereo not shown)	%	0
